Values were extracted from patent US12723255B2.

- Tested on: F1 hybrid maize plants
- protocol: efficacy field trial with segregating F1 hybrid plants
- Format: in vivo
- condition_info: CTP A; 2,4-D amine 2× at VE-V2 (plus quizalofop-P 0.5×), V4, V8
% Injury from V4 2,4-D listing for selected molecules.

| molecule | unit | % Injury from V4 2,4-D |
| --- | --- | --- |
| MON-HT5: engineered oxygenase protein, amino acid sequence SEQ ID NO:28 (protein) MHAALTPLTNKYRFIDVQPLTGVLGAEITGVDLREPLDDSTWNEILDAFHTYQVIYFPGQAITNEQHIAFSRRFGPVDPVPLLKSIEGYPEVQMIRREANESGRVIGDDWHTDSTFLDAPPAAVVMRAIEVPEYGGDTGFLSMYSAWETLSPTMQATIEGLNVVHSATKVFGSLYQATNWRFSNTSVKVMDVDAGDRETVHPLVVTHPVTGRRALYCNQVYCQKIQGMTDAESKSLLQFLYEHATKFDFTCRVRWKKDQVLVWDNLCTMHRAVPDYAGKFRYLTRTTVAGDKPSR | % | 27.2 |
| MON-HT6: engineered oxygenase protein, amino acid sequence SEQ ID NO:31 (protein) MHAALSPLSQKYRFIDVQPLTGVLGAEITGVTLREPLDDNTWNEILDAFHTYQVIYFPGQAITNEQHIAFSRRFGPVDPVPLLKSIEGYPEVQMIRREANESGRVIGDDWHTDSTFLDAPPAAVVMYAREVPPYGGDTGFLSMYSAWDTLSDTMKATIEGLNVVHSATRVFGSLYQAQNRRFSNTSVKVMDVDAGDRETVHPLVVSHPVTGRRALYCNQVYCQRIEGMTDAESKPLLQFLYEHATRFDFTCRVRWKKDQVLVWDNLCTMHRAVPDYAGKFRYLTRTTVAGDKPSR | % | 27 |
| MON-HT9: engineered oxygenase protein, amino acid sequence SEQ ID NO:40 (protein) MHAALTPLTNKYRFIDVQPLTGVLGAEITGVDLREPLDDSTWNEILDAFHTYQVIYFPAQQITNEQHISFSRRFGPVDPVPLLKSIEGYPEVQMIRREANESGRILGDDWHTDSTFLDAPPAAVVMRAIEVPEYGGDTGFLSMYSAWDTLSDTMKATIEGLNVVHSATRVFGSLYQAQNWRFSNTSVKVMDVDAGDRETVHPLVVSHPVTGRRALYCNQVYCQRIEGMTDAESKCLLQFLYEHATKFDFTCRVRWKKDQVLVWDNLCTMHRAVPDYAGKFRYLTRTTVAGDRPAR | % | 20 |
| MON-HT3: engineered oxygenase protein, amino acid sequence SEQ ID NO:22 (protein) MHAALSPLSQRFERIAVQPLTGVLGAEITGVDLREPLDDSTWNEILDAFHTYQVIYFPGQAITNEQHIAFSRRFGPVDPVPLLKSIEGYPEVQMIRREANESGRVIGDDWHTDSTFLDAPPAAVVMYAKEVPPYGGDTLFASMYTAWETLSPTMQATIEGLNVVHSATRVFGSLYQAQNRRFSNTSVKVMDVDAGDRETVHPLVVTHPETGRKGLYVNQVYCQRIEGMSEKESEPLLSFLFAHATKPEFTCRVRWQEGQVLVWDNLCTQHFAVPDYAGKFRYLTRTTVGGVRPAR | % | 21.7 |
| MON-HT4: engineered oxygenase protein, amino acid sequence SEQ ID NO:25 (protein) MHAALTPLTNKYRFIDVQPLTGVLGAEITGVDLREPLDDSTWNEILDAFHTYQVIYFPGQAITNEQHIAFSRRFGPVDPVPLLKSIEGYPEVQMIRREANESGRVIGDDWHTDSTFLDAPPAAVVMYAREVPPYGGDTGFLSMYTAWETLSPTMQATIEGLNVVHSATRVFGSLYQAQNRRYSNTSVKVMDVDAGDRETVHPLVVSHPVTGRRALYCNQVYCQRIEGMTDAESKSLLQFLYEHATKFDFTCRVRWKKDQVLVWDNLCTMHRAVPDYAGKFRYLTRTTVAGDKPSR | % | 22.3 |
| MON-HT8: engineered oxygenase protein, amino acid sequence SEQ ID NO:37 (protein) MHAALTPLTNKYRFIDVQPLTGVLGAEITGVDLREPLDDSTWNEILDAFHTYQVIYFPGQAITNEQHIAFSRRFGPVDPVPILKSIEGYPEVQMIRREANESGRVIGDDWHTDSTFLDAPPAAVVMRAIEVPEYGGDTGFLSMYSAWETLSPTMQATIEGLNVVHSATKVFGSLYQATNWRFSNTSVKVMDVDAGDRETVHPLVVTHPVTGRRALYCNQVYCQKIQGMTDAESKSLLQFLYEHATKFDFTCRVRWKKDQVLVWDNLCTMHRSVPDYGNAFRYLTRTTVAGDKPSR | % | 10 |
| MON-HT10: engineered oxygenase protein, amino acid sequence SEQ ID NO:43 (protein) MHAALTPLTNKYRFIDVQPLCGVLGAEITGVDLREPLDDSTWNEILDAFHTYQVIYFPGQAITNEQHIAFSRRFGPVDPVPLLKSIEGYPEVQMIRREANESGRILGDDWHTDSTFLDAPPAAVVMRAIEVPEYGGDTGFLSMYSAWDTLSDTMKATIEGLNVVHSATRVFGSLYQAQNWRFSNTSVKVMDVDAGDRETVHPLVVSHPVTGRRALYCNQVYCQRIEGMTDAESKCLLQFLYEHATKFDFTCRVRWKKDQVLVWDNLCTMHLAVPDYDGKFRYLTRTTVAGDKPSR | % | 28 |
